Numbers sourced from patent US8906911B2.

# measured.on: human CCR2B (Homo sapiens (Human), UniProt P41597)
# Sequence (P41597 other isoform, or with tags, fused parts or gaps): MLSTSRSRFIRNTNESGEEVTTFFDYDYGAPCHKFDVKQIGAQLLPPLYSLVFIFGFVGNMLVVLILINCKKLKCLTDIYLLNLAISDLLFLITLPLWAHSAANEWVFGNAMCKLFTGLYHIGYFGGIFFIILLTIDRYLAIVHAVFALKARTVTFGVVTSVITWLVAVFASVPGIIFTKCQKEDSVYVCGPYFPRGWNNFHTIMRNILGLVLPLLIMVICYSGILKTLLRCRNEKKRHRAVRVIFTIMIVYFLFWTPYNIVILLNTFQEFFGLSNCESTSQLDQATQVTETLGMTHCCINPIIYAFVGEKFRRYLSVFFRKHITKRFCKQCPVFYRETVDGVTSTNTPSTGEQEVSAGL
# assay.summary: Inhibition of native agonist (human MCP-1)-induced intracellular calcium release, calcium flux assay in CHO cells expressing human CCR2B and Gα16
# Type: cell-based
# experimental.parameters: read-out: hCCR2B Kb
# Kb binned as bin 0 (below 10 nM), bin 1 (10 nM to below 60 nM), bin 2 (60 nM or more)

In [3]: df
Out[3]:
                                    compound  qualitative_label
 0  CO[C@@H]1COCC[C@@H]1N[C@@H]1C[C@H]2CCC[C@@]2(C(=O)N2C[C@@H]3C[C@H]2CN3c2nccc(C(F)(F)F)c2F)C1 [Example 21]              bin 2
 1  COc1ccc(N2C[C@@H]3C[C@H]2CN3C(=O)[C@@]23CCC[C@@H]2C[C@@H](N[C@H]2CCOC[C@H]2OC)C3)cc1C(F)(F)F [Example 31]              bin 2
 2  CO[C@@H]1COCC[C@@H]1N[C@@H]1C[C@H]2CCC[C@@]2(C(=O)N2C[C@@H]3C[C@H]2CN3c2nccc(C(F)(F)F)c2C)C1 (racemic) [Example 38]              bin 2
 3  N#Cc1ccc(C(F)(F)F)cc1N1C[C@@H]2C[C@H]1CN2C(=O)[C@@]12CCC[C@@H]1C[C@@H](N1CCC(c3ccccc3)CC1)C2 [Example 48]              bin 1
 4  CO[C@@H]1COCC[C@@H]1N[C@@H]1C[C@H]2CCC[C@@]2(C(=O)N2C[C@@H]3C[C@H]2CN3c2cc(C(F)(F)F)ccc2C)C1 [Example 16]              bin 1
 5  CO[C@@H]1COCC[C@@H]1N[C@@H]1C[C@H]2CCC[C@@]2(C(=O)N2C[C@@H]3C[C@H]2CN3c2cc(C#N)ccc2C(F)(F)F)C1 [Example 36]              bin 2
 6  CO[C@@H]1COCC[C@@H]1N[C@@H]1C[C@H]2CCC[C@@]2(C(=O)N2C[C@@H]3C[C@H]2CN3c2ncccc2C(F)(F)F)C1 [Example 33]              bin 2
 7  CO[C@@H]1COCC[C@@H]1N[C@@H]1C[C@H]2CCC[C@@]2(C(=O)N2C[C@@H]3C[C@H]2CN3c2cccc(C(F)(F)F)n2)C1 [Example 22]              bin 1
 8  CO[C@@H]1COCC[C@H]1N[C@@H]1C[C@H]2CCC[C@@]2(C(=O)N2C[C@@H]3C[C@H]2CN3c2cc(C(F)(F)F)ccn2)C1 [Example 1]              bin 1
 9  CO[C@@H]1COCC[C@@H]1N[C@@H]1C[C@H]2CCC[C@@]2(C(=O)N2C[C@@H]3C[C@H]2CN3c2ccc(F)c(Cl)c2)C1 [Example 20]              bin 1
10  CO[C@@H]1COCC[C@@H]1N[C@@H]1C[C@H]2CCC[C@@]2(C(=O)N2C[C@@H]3C[C@H]2CN3c2ccc(F)c(C(F)(F)F)c2)C1 [Example 15]              bin 0
11  CO[C@@H]1COCC[C@@H]1N[C@@H]1C[C@H]2CCC[C@@]2(C(=O)N2C[C@@H]3C[C@H]2CN3c2ccnc(C(F)(F)F)c2)C1 [Example 26]              bin 2
12  CO[C@@H]1COCC[C@@H]1N[C@@H]1C[C@H]2CCC[C@@]2(C(=O)N2C[C@@H]3C[C@H]2CN3c2ccc(Cl)c(C(F)(F)F)c2)C1 [Example 46]              bin 0
13  CO[C@@H]1COCC[C@@H]1N[C@@H]1C[C@H]2CCC[C@@]2(C(=O)N2C[C@@H]3C[C@H]2CN3c2ncc(C(F)(F)F)cc2Cl)C1 [Example 32]              bin 2
14  CO[C@@H]1COCC[C@@H]1N[C@@H]1C[C@H]2CCC[C@@]2(C(=O)N2C[C@@H]3C[C@H]2CN3c2cccc(C(F)(F)F)c2)C1 [Example 18]              bin 1
15  CO[C@@H]1COCC[C@@H]1N[C@@H]1C[C@H]2CCC[C@@]2(C(=O)N2C[C@@H]3C[C@H]2CN3c2ccc(C#N)c(C(F)(F)F)c2)C1 (racemic) [Example 39]              bin 1
16  CO[C@@H]1COCC[C@@H]1N(C)[C@@H]1C[C@H]2CCC[C@@]2(C(=O)N2C[C@@H]3C[C@H]2CN3c2ccc(C#N)c(C(F)(F)F)c2)C1 [Example 56]              bin 1
17  CO[C@@H]1COCC[C@@H]1N[C@@H]1C[C@H]2CCC[C@@]2(C(=O)N2C[C@@H]3C[C@H]2CN3c2ccc(C)c(C(F)(F)F)c2)C1 [Example 19]              bin 1
18  CO[C@@H]1COCC[C@@H]1N[C@@H]1C[C@H]2CCC[C@@]2(C(=O)N2C[C@@H]3C[C@H]2CN3c2cccc(OC(F)(F)F)c2)C1 [Example 29]              bin 1
19  CC[C@@H]1COCC[C@@H]1N[C@@H]1C[C@H]2CCC[C@@]2(C(=O)N2C[C@@H]3C[C@H]2CN3c2cc(C(F)(F)F)ccn2)C1 [Example 65]              bin 0
20  C[C@@H]1COCC[C@@H]1N[C@@H]1C[C@H]2CCC[C@@]2(C(=O)N2C[C@@H]3C[C@H]2CN3c2cc(C(F)(F)F)ccn2)C1 [Example 63]              bin 0
21  CO[C@@H]1COCC[C@@H]1N[C@@H]1C[C@H]2CCC[C@@]2(C(=O)N2C[C@H]3C[C@@H]2CN3c2cc(C(F)(F)F)ccn2)C1 [Example 3]              bin 2
22  CO[C@@H]1COCC[C@@H]1N[C@@H]1C[C@H]2CCC[C@@]2(C(=O)N2C[C@@H]3C[C@H]2CN3c2cc(C(F)(F)F)ccc2C#N)C1 [Example 28]              bin 0
